Below, each of the variants is paired with its reported self-cleavage value.
B1: CPEB3 Ribozyme (parent)
chain: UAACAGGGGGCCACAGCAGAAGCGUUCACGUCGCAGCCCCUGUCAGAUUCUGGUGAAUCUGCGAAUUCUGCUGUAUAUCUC

- Variants of: B1
- Experimental Details: self-cleavage, relative activity (ratio to wild type); higher = more cleavage; in vitro, sequencing

Examples with their reported self-cleavage follow.
{"Mutation Notation": "A45G A56G", "Assay Endpoint": "self-cleavage", "Result": 0.6}
{"Mutation Notation": "A56G U58A", "Assay Endpoint": "self-cleavage", "Result": 0.32}
{"Mutation Notation": "A65G A77U", "Assay Endpoint": "self-cleavage", "Result": 0.55}
{"Mutation Notation": "A13G A18U", "Assay Endpoint": "self-cleavage", "Result": 0.27}
{"Mutation Notation": "G6A A35G", "Assay Endpoint": "self-cleavage", "Result": 0.86}
{"Mutation Notation": "U31C A57U", "Assay Endpoint": "self-cleavage", "Result": 0.47}
{"Mutation Notation": "C12U A13C", "Assay Endpoint": "self-cleavage", "Result": 1.16}
{"Mutation Notation": "G10U U43C", "Assay Endpoint": "self-cleavage", "Result": 0.34}

# input variant: A65U C68U ; wanted: its self-cleavage
0.31

# input variant: G10C U41A ; wanted: its self-cleavage
0.33

# input variant: A3U G33U ; wanted: its self-cleavage
0.42

# input variant: G33U A35U ; wanted: its self-cleavage
0.15

# input variant: U25C U72C ; wanted: its self-cleavage
0.28

# input variant: A2G A28U ; wanted: its self-cleavage
0.52

# input variant: U31A U54G ; wanted: its self-cleavage
0.55

# input variant: A47G G52A ; wanted: its self-cleavage
1.25

# input variant: A47C G73A ; wanted: its self-cleavage
0.85

# input variant: U49C G55A ; wanted: its self-cleavage
0.18

# input variant: A35G A64G ; wanted: its self-cleavage
1.28

# input variant: A21G C59U ; wanted: its self-cleavage
0.38
